Provenance of the data: patent US20180118721A1

# system: purified human recombinant MTH1 (human MTH1, residues 42-197) (Homo sapiens)
# Construct: human MTH1, residues 42-197, Uniprot-ID: P36639, expressed in E. coli; made in house; host or cells: E. coli
# protocol-notes: MTH1 enzymatic assay (luminescence-based, PPiLight)
# Assay type: biochemical
# particulars: 6 μM 8-oxo-dGTP, Table 1, grouped
# Experimental: The IC50 value was determined by a MTH1 enzymatic assay. […] The amount of generated pyrophosphate (PPi) is then measured by a bioluminescent reaction. In detail: The MTH1 (human mutT homologue 1) enzymatic assay is performed as a luminescence-based 384-well assay. […] After incubation of the reaction mixture, the generation of pyrophosphate (PPi) as a result of nucleotide triphosphate (8-oxo-dGTP) hydrolysis by MTH1 is detected using the PPiLight inorganic pyrophosphate assay kit (Lonza) (third step). […]
pIC50: −log10 of the molar value.
Below, each entry is listed alongside its reported pIC50.

C[C@@]1(O)CCN(c2cc(NC3CC3)nc(N)n2)C1 [Example 52] : 7.00 to 9.00
CNc1cc(N2CCC(O)C2)nc(N)n1 (stereo not drawn) [Example 7] : 7.00 to 9.00

QUERY: Give the measured pIC50 of CNc1cc(N2CCCCC2Cc2ccccc2OC)nc(N)n1 (single isomer, unassigned) [Example 107] .
RESULT: 7.00 to 9.00
